Biological target: Recombinant ROCK2 (amino acids 5-554) (Homo sapiens, UniProt O75116)
Construct: ROCK2 (amino acids 5-554); by word order, ROCK2 from SignalChem
Sequence (O75116 5-554): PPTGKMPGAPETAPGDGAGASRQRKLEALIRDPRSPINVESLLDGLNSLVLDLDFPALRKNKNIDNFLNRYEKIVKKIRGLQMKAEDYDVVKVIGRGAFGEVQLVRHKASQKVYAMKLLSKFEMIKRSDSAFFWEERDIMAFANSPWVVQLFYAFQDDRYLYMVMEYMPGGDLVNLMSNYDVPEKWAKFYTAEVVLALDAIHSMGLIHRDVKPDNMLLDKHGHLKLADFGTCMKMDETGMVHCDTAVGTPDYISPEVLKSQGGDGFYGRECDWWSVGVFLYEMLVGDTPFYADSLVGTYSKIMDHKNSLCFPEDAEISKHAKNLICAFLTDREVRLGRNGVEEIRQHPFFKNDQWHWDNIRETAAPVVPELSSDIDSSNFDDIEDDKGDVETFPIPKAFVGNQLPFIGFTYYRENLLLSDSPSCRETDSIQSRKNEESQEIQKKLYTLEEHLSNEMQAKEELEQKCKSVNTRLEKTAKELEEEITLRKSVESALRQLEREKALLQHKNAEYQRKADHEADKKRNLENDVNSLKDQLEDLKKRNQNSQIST
Assay: ROCK inhibition assay, LANCE Ultra TR-FRET kinase assay (ROCK2)
Conditions: 4 μM ATP, 50 nM ULight-CREBtide substrate
Procedure: Kinase IC50 was determined through an in vitro assay based on LANCE Ultra TR-FRET (Time-Resolved Fluorescence Resonance Energy Transfer) homogeneous technologies method (Perkin Elmer). […] Compound activities were measured by Envision and IC50s were calculated. […] The reaction was incubated for 1 hour, and the signal was read in Envision in TR-FRET mode (excitation at 320 nm and emission at 615/665 nm). […]
pIC50: −log10 of the molar value.
reported-metric: pIC50

Recorded results for 2 compounds are shown here.
CNC(=O)c1cccc(Cn2cc(CC(C)O)c3cc(-c4cn[nH]c4C(F)F)ccc3c2=O)c1 (stereo not drawn)	> 8.00
CNC(=O)c1cc(Cn2ccc3cc(-c4conc4C)ccc3c2=O)ccn1	6.30 to 7.00

// switching to the query compound
Indicate its recorded pIC50; the compound in question is COc1cccc([C@@H](CO)N2CNc3cc(-c4cn[nH]c4Cl)ccc3C2=O)c1
7.00 to 8.00
